# TESTED ON: NMDA receptor histamine site (NMDA(HA)R), native NMDAR of rat hippocampal synaptosomes (Rattus norvegicus, UniProt P35439+Q00960)
# Sequence (Q00960 27-1482, other chains not shown): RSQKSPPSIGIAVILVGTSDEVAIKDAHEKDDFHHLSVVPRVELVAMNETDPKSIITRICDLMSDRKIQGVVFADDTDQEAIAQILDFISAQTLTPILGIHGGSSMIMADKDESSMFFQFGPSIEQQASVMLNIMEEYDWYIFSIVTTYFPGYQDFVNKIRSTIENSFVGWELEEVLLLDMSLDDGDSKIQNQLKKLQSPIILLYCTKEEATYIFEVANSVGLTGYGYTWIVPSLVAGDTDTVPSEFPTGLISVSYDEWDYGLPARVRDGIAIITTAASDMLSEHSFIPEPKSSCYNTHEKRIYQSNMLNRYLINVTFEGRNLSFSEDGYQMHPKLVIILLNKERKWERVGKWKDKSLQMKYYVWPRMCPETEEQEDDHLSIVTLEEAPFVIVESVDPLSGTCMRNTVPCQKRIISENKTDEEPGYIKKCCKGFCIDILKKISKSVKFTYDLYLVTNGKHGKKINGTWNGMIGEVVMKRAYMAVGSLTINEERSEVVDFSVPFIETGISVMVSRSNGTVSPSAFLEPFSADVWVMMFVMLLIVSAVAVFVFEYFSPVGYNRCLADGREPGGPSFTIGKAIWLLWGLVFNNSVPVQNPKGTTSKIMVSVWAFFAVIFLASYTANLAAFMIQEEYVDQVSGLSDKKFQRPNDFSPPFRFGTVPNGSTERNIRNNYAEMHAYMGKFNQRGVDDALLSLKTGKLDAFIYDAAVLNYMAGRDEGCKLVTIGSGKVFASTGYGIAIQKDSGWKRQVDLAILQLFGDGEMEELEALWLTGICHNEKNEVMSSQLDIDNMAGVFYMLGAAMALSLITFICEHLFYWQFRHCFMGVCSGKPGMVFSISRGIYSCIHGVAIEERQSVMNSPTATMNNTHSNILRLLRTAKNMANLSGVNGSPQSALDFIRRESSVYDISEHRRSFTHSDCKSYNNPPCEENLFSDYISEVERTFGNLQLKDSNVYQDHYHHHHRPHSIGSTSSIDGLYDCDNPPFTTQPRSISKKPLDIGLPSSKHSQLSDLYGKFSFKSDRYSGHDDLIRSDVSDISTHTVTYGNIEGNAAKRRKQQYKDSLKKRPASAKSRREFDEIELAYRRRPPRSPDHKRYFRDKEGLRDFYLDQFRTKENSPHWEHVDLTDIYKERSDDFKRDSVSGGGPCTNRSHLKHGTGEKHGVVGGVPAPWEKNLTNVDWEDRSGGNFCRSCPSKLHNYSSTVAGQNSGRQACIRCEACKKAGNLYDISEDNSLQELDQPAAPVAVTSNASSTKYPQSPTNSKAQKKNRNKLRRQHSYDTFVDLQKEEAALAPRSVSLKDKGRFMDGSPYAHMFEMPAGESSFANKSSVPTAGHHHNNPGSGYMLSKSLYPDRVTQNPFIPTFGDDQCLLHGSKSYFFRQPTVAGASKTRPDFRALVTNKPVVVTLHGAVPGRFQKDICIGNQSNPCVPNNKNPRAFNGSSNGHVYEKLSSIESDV
# MEASUREMENT PROTOCOL: tissue or organelle
# PARTICULARS: read-out: Intrinsec activity %
QUANTITY MEASURED: Emax (%)

> print(dat)
                           substance.smiles  quantity.measured  measured.number
1                        Cc1sc(N)nc1/C=C/CN               Emax               75
2  CC1(C)C(C(=O)c2cn(Cc3ccc(F)cc3)c3ccccc23)C1(C)C               Emax               35
3                         NCCCCCCc1cnc(N)s1               Emax               41
